assay: clinical; settings: human, in vivo, iv, 1.1 g/m'2
Description: Systemic clearance in patient (6 patients) with severe renal insufficiency at 1.1 +/- 0.2 g/m'2 administered as pulse therapy with 1 hr infusion by HPLC analysis
PROPERTY: clearance at 1 h (mL/min)
Write the answer as a number in mL/min, unit excluded.

Task: Item O=P1(N(CCCl)CCCl)NCCCO1 (stereo unspecified) [CYCLOPHOSPHAMIDE ANHYDROUS] has what recorded clearance at 1 h?
Result: 47

###

assay: Drug excretion in dialysate of patient (4 patients) with chronic renal failure at 100 mg, iv administered over 10 mins followed by hemodialysis for 4 hrs measured during hemodialysis treatment by GLC analysis; conditions: human
PROPERTY: dose excreted at 4 h
Provide a numeric answer, followed by its unit.

Task: # get_value(readout='dose excreted at 4 h', item= O=P1(N(CCCl)CCCl)NCCCO1 (stereo unspecified) [CYCLOPHOSPHAMIDE ANHYDROUS] )
Result: 37%

###

experiment: clinical; conditions: human, in vivo, iv, 0.83 g/m'2
Description: Renal clearance in patient ( 12 patients) with normal renal function at 0.83 +/- 0.05 g/m'2 administered as pulse therapy with 1 hr infusion by HPLC analysis
PROPERTY: CL renal at 1 h (mL/min)
Quick reminder: number only, in mL/min, skip the unit.

Task: May I ask what CL renal at 1 h has been recorded for O=P1(N(CCCl)CCCl)NCCCO1 (stereo unspecified) [CYCLOPHOSPHAMIDE ANHYDROUS] ?
Result: 14.9

###

assay: Drug excretion in urine of patient (6 patients) with severe renal insufficiency at 1.1 +/- 0.2 g/m'2 administered as pulse therapy with 1 hr infusion by HPLC analysis; details: human, iv, 1.1 g/m'2
PROPERTY: dose excreted at 1 h (%)
Express the result in % but write the number alone.

Task: Which dose excreted at 1 h value belongs to O=P1(N(CCCl)CCCl)NCCCO1 (stereo unspecified) [CYCLOPHOSPHAMIDE ANHYDROUS] ?
Result: 5.6

###

test: Drug recovery in normal human urine
PROPERTY: dose excreted

Task: May I ask what dose excreted has been recorded for O=P1(N(CCCl)CCCl)NCCCO1 (stereo unspecified) [CYCLOPHOSPHAMIDE ANHYDROUS] ?
Result: ≤ 25%

###

experiment: clinical; conditions: human, in vivo, iv, 1.2 g/m'2
Description: Systemic clearance in patient (6 patients) with hemodialysis-dependent end-stage renal disease at 1.2 +/- 0.4 g/m'2 administered as pulse therapy with 1 hr infusion followed by hemodialysis for 3 hrs started 7 hrs post dose measured during hemodialysis treatment by HPLC analysis
PROPERTY: clearance (mL/min)
The figure you give is taken to be in mL/min; do not add the unit.

Task: Return reported clearance; argument: O=P1(N(CCCl)CCCl)NCCCO1 (stereo unspecified) [CYCLOPHOSPHAMIDE ANHYDROUS]
Result: 64

###

assay: Drug excretion in urine of patient (6 patients) with moderate renal insufficiency at 1.4 +/- 0.1 g/m'2 administered as pulse therapy with 1 hr infusion by HPLC analysis; conditions: human, iv, 1.4 g/m'2
PROPERTY: dose excreted at 1 h (%)
The reply should be a number in %, with the unit left off.

Task: Give its dose excreted at 1 h value. Item: O=P1(N(CCCl)CCCl)NCCCO1 (stereo unspecified) [CYCLOPHOSPHAMIDE ANHYDROUS]
Result: 5.8

###

assay: clinical; conditions: human, in vivo, iv, 0.83 g/m'2
Description: Systemic clearance in patient ( 12 patients) with normal renal function at 0.83 +/- 0.05 g/m'2 administered as pulse therapy with 1 hr infusion by HPLC analysis
PROPERTY: clearance at 1 h (mL/min)
Numeric only. Scale: mL/min

Task: Any idea what its clearance at 1 h is? The molecule is O=P1(N(CCCl)CCCl)NCCCO1 (stereo unspecified) [CYCLOPHOSPHAMIDE ANHYDROUS]
Result: 79
